molecular target: HCV polymerase (Hepatitis C virus genotype 1b, UniProt Q9WMX2); construct: (His)6 (C); assay: biochemical; settings: polymerase assay of Biological Example 1; read-out: NS5B polymerase IC50
pIC50: −log10 of the molar value.
Quick rule for you: pIC50 at 7 or higher means satisfied, lower means not satisfied.

Compound | Assigned label
CNC(=O)c1c(-c2ccc(F)cc2)oc2nc(N(C)S(C)(=O)=O)c(CC3CO3)cc12 (centres unmarked) | not satisfied
CNC(=O)c1c(-c2ccc(Cl)cc2)oc2nc(N(CCCCC(=O)O)S(C)(=O)=O)c(C3CC3)cc12 | satisfied
CNC(=O)c1c(-c2ccc(C)cc2)oc2nc(N(CCCCS(C)(=O)=O)S(C)(=O)=O)c(C3CC3)cc12 | satisfied
CNC(=O)c1c(-c2ccc(Cl)cc2F)oc2nc(N(C)S(C)(=O)=O)c(I)cc12 | satisfied
CCc1cc2c(C(=O)NC)c(-c3ccc(F)cc3)oc2nc1N(CCCCC(C)=O)S(C)(=O)=O | satisfied
